The origin of these recorded values is paper PMC9569420.

target: AMPK (A1/B2/G2) (Homo sapiens); construct: purchased Reaction Biology Corporation; assay: HotSpot kinase assay; type: biochemical; conditions: read-out: IC50 (M) of Control Compound
Sequence (Q13131 whole entry): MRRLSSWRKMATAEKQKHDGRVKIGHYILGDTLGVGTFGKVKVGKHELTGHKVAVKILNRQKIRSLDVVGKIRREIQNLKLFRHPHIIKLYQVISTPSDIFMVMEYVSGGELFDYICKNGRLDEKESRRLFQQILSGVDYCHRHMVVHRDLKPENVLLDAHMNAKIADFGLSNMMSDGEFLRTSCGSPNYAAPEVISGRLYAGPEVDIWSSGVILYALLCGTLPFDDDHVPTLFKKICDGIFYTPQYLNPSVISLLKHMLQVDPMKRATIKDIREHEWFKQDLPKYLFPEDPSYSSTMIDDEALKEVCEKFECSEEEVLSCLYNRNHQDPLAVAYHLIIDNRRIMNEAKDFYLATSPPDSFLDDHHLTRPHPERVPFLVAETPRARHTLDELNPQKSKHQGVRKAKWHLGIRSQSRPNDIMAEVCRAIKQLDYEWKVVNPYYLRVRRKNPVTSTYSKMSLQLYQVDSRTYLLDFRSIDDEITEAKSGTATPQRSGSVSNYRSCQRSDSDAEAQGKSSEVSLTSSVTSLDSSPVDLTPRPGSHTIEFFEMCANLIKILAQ
Sequence (O43741 whole entry partner): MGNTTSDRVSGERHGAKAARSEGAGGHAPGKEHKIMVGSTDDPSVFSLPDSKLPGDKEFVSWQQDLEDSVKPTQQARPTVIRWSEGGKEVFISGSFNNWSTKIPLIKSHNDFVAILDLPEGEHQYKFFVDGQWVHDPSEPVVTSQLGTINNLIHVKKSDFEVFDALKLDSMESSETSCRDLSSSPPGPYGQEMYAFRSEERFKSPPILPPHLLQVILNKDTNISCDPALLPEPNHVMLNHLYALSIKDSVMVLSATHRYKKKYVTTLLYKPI
Sequence (Q9UGJ0 whole entry partner): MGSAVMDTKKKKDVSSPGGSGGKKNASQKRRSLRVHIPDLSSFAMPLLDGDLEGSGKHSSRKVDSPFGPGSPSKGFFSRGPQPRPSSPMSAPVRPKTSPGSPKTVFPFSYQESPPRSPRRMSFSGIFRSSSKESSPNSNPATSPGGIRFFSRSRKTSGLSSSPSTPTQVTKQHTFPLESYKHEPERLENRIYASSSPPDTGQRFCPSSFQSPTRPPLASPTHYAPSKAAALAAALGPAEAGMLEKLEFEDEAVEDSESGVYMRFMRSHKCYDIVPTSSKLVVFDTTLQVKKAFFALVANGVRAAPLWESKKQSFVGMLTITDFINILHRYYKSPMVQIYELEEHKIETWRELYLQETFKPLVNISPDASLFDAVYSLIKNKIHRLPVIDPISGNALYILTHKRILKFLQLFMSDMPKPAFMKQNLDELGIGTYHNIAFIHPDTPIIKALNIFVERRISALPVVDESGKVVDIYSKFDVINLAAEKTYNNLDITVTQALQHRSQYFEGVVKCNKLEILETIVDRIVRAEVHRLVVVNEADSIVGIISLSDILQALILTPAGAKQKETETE
measurement type: IC50 (M)

[
  {
    "compound": "Cn1cc(C2=C(c3cn(CCCSC(=N)N)c4ccccc34)C(=O)NC2=O)c2ccccc21 [Ro-31-8220, reference compound]",
    "assay system": "AMPK (A1/B2/G2) (Homo sapiens)",
    "meas value": "6.35e-08"
  }
]

====

target: NEK3 (Homo sapiens); construct: purchased Reaction Biology Corporation; assay: HotSpot kinase assay; assay type: biochemical; details: read-out: IC50 (M) of Control Compound
Sequence (P51956 whole entry): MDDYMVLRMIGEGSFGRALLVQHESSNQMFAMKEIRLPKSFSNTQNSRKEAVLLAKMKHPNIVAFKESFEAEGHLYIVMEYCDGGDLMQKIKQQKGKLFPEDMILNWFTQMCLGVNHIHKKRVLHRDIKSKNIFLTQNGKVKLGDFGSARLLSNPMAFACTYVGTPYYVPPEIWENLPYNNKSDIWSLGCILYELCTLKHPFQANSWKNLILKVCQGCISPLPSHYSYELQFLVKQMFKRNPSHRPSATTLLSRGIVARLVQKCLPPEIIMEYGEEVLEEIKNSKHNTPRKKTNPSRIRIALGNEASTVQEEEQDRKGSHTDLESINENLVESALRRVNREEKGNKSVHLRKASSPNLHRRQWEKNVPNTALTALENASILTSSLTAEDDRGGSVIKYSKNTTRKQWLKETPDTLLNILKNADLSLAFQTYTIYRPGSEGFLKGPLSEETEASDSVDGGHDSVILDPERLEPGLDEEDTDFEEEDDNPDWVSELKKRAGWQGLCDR

[
  {
    "compound": "CN(C)C/C=C/C(=O)Nc1cccc(C(=O)Nc2ccc(Nc3nccc(-c4cccnc4)n3)cc2)c1 [JNK-IN-7, reference compound]",
    "IC50 (M)": "5.46e-08"
  }
]
